# system name: MAP3K4 (human)
# test name: KINOMEscan competition binding
# experimental setup: compound 10.0 µM
observed property: kinase still bound, per cent of control (%)
Give the value in % but do not write % after it.

Worked examples, 4 compounds total:
CCN1CCN(C(=O)Cc2ccc(Nc3ncc(F)c(Nc4ccc(C(=O)Nc5ccccc5Cl)cc4)n3)cc2)CC1 83
COc1ccc(N(C(=O)Oc2c(C)cccc2C)c2ccnc(Nc3ccc(N4CCN(C)CC4)cc3)n2)c(OC)c1 23
O=C1NC(=O)/C(=C/c2ccc3nccc(-c4ccncc4)c3c2)S1 96
Cc1n[nH]c2ccc(-c3cncc(OC[C@@H](N)Cc4c[nH]c5ccccc45)c3)cc12 100

Entry CNC(=O)c1cc(Oc2ccc(NC(=O)Nc3ccc(Cl)c(C(F)(F)F)c3)cc2)ccn1 , kinase still bound, per cent of control reported as 98

Entry O=c1cc(N2CCOCC2)oc2c(-c3cccc4c3sc3ccccc34)cccc12 , kinase still bound, per cent of control reported as 100

Entry COc1cc(N2CCN(C)CC2)ccc1Nc1ncc2c(n1)N(C)c1ccccc1C(=O)N2C , kinase still bound, per cent of control reported as 100

Entry CN(C)C/C=C/C(=O)Nc1ccc(C(=O)Nc2cccc(Nc3nccc(-c4cccnc4)n3)c2)cc1 , kinase still bound, per cent of control reported as 71

Entry CS(=O)(=O)N1CCN(Cc2cc3nc(-c4cccc5[nH]ncc45)nc(N4CCOCC4)c3s2)CC1 , kinase still bound, per cent of control reported as 100

###

# System: EGFR (human), P00533 [T790M/L858R]
# test name: KINOMEscan competition binding
# experimental setup: compound 10.0 µM
observed property: kinase still bound, per cent of control (%)
Give the value in % but do not write % after it.

Worked examples, 10 compounds total:
compound	system name	readout value
O=C(NC1CC1)c1cccc(-c2ccc3c(NC(=O)C4CC4)n[nH]c3c2)c1	EGFR (human), P00533 [T790M/L858R]	100
CNC(=O)Nc1ccc(-c2nc(N3CC4CCC(C3)O4)c3cnn(C4CCC5(CC4)OCCO5)c3n2)cc1	EGFR (human), P00533 [T790M/L858R]	100
O=C(Nc1cccc(Nc2ncc(Br)c(NCCc3cnc[nH]3)n2)c1)N1CCCC1	EGFR (human), P00533 [T790M/L858R]	26
O=C1Nc2ccc(I)cc2/C1=C/c1cc(Br)c(O)c(Br)c1	EGFR (human), P00533 [T790M/L858R]	98
COc1cc(C(=O)N2CCC(N3CCN(C)CC3)CC2)ccc1Nc1ncc2c(n1)N(C)c1ccccc1C(=O)N2C	EGFR (human), P00533 [T790M/L858R]	84
CC1=C(C(=O)Nc2cc3cn[nH]c3cc2F)C(c2ccc(C(F)(F)F)cc2)CC(=O)N1 (centres undefined)	EGFR (human), P00533 [T790M/L858R]	87
COc1cc2ncnc(Nc3cccc(Cl)c3)c2cc1OC	EGFR (human), P00533 [T790M/L858R]	22
CN(C)C/C=C/C(=O)Nc1cccc(Nc2ncc3c(n2)N(C)c2ccccc2C(=O)N3C)c1	EGFR (human), P00533 [T790M/L858R]	86
CCCS(=O)(=O)Nc1ccc(F)c(C(=O)c2c[nH]c3ncc(-c4ccc(Cl)cc4)cc23)c1F	EGFR (human), P00533 [T790M/L858R]	100
N#Cc1cc(-c2ccnc(Nc3ccc(-n4cnc(-c5cccnc5)n4)cc3)n2)cc(N2CCOCC2)c1	EGFR (human), P00533 [T790M/L858R]	97

Entry CN(C)C/C=C/C(=O)Nc1ccc(C(=O)Nc2cccc(Nc3nccc(-c4cccnc4)n3)c2)cc1 , kinase still bound, per cent of control reported as 100

###

# system name: TGFBR1 (human) (UniProt P36897)
# Sequence (P36897 whole entry, looked up): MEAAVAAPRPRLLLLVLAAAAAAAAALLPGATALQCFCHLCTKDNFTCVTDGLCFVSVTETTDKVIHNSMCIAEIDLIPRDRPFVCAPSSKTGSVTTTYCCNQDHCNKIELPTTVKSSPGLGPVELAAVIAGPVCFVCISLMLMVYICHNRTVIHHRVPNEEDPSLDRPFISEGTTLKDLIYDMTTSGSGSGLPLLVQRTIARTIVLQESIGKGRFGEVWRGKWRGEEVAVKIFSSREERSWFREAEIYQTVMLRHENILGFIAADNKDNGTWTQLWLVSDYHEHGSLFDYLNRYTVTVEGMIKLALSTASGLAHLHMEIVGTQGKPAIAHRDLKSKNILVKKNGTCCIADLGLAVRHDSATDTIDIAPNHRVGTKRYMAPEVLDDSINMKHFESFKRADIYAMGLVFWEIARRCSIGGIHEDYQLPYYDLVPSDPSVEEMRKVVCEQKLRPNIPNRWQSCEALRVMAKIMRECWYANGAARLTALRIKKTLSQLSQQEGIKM
# test name: KINOMEscan competition binding
# experimental setup: compound 10.0 µM
observed property: kinase still bound, per cent of control (%)
Give the value in % but do not write % after it.

Entry Cc1n[nH]c2ccc(-c3cncc(OC[C@@H](N)Cc4c[nH]c5ccccc45)c3)cc12 , kinase still bound, per cent of control reported as 100

Entry C=CC(=O)Nc1cc(-n2c(=O)ccc3cnc4ccc(-c5cn[nH]c5)cc4c32)ccc1C , kinase still bound, per cent of control reported as 83

Entry C=CC(=O)Nc1ccc(CN(C(=O)Nc2c(Cl)c(OC)cc(OC)c2Cl)c2cc(Nc3ccc(N4CCN(C)CC4)cc3)ncn2)cc1 , kinase still bound, per cent of control reported as 100

Entry COc1cc(N2CCN(C)CC2)ccc1Nc1ncc2c(n1)N(C)c1ccccc1C(=O)N2C , kinase still bound, per cent of control reported as 100

Entry COc1cc(C(=O)N2CCC(N3CCN(C)CC3)CC2)ccc1Nc1ncc2c(n1)N(C)c1ccccc1C(=O)N2C , kinase still bound, per cent of control reported as 100

###

# system name: TYRO3 (human) (UniProt Q06418)
# Sequence (Q06418 whole entry, looked up): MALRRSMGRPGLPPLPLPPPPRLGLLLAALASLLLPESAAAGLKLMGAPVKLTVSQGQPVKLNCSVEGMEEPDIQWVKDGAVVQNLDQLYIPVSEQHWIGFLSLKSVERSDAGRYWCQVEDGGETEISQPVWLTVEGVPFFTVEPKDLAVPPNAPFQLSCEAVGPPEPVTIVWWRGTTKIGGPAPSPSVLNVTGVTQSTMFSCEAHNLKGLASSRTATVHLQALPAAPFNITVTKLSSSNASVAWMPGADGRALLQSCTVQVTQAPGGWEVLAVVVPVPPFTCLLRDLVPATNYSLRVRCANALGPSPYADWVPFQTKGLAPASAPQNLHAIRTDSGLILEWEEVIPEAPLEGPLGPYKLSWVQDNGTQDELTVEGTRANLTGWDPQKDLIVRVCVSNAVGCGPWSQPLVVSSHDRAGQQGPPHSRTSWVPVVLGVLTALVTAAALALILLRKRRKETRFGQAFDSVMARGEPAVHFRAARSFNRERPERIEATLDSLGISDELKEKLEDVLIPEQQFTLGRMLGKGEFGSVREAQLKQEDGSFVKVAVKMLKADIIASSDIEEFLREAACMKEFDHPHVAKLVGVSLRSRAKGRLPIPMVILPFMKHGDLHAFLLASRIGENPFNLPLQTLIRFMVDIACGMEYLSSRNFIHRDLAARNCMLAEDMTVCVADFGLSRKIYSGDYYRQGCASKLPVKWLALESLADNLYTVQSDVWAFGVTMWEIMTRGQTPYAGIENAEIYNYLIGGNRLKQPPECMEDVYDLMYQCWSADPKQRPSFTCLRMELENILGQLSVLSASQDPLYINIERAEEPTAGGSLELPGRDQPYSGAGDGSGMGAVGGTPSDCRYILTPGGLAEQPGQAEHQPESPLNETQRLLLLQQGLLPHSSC
# test name: KINOMEscan competition binding
# experimental setup: compound 10.0 µM
In this section, each of the molecules is paired with its reported kinase still bound, per cent of control.

COCC(=O)NC/C=C/c1ccc2ncnc(Nc3ccc(Oc4ccc(C)nc4)c(C)c3)c2c1 80%
CCN(CC)CCCCNc1ncc2cc(-c3cc(OC)cc(OC)c3)c(NC(=O)NC(C)(C)C)nc2n1 100%
C=CC(=O)Nc1cc(-n2c(=O)ccc3cnc4ccc(-c5cn[nH]c5)cc4c32)ccc1C 100%
COc1cc2ncnc(-n3nc(-c4ccccn4)nc3N)c2cc1OC 63%

Now look at this one.
Entry Cc1n[nH]c2ccc(-c3cncc(OC[C@@H](N)Cc4c[nH]c5ccccc45)c3)cc12 , kinase still bound, per cent of control reported as 100%

###

# system name: ACVRL1 (human) (UniProt P37023)
# Sequence (P37023 whole entry, looked up): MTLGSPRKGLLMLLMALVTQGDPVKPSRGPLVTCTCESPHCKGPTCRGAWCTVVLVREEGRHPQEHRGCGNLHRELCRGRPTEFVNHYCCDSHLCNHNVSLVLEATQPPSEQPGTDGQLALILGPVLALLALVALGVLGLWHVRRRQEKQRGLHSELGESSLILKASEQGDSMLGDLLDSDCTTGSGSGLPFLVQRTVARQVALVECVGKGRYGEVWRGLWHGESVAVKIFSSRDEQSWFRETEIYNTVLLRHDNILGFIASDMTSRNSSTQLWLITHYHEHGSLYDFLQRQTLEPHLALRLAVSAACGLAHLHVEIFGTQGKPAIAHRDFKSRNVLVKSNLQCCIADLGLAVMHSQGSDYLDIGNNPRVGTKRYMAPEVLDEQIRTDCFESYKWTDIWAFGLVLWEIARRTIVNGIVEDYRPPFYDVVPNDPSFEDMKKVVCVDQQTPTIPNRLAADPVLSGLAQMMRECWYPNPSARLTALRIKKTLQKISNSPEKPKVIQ
# test name: KINOMEscan competition binding
# experimental setup: compound 10.0 µM
In this section, each of the compounds is paired with its reported kinase still bound, per cent of control.
// return the numeric value with its unit appended

O=C1NC(=O)/C(=C/c2ccc3nccc(-c4ccncc4)c3c2)S1 85%

Entry CS(=O)(=O)N1CCN(Cc2cc3nc(-c4cccc5[nH]ncc45)nc(N4CCOCC4)c3s2)CC1 , kinase still bound, per cent of control reported as 100%

Entry N#CCNC(=O)c1ccc(-c2ccnc(Nc3ccc(N4CCOCC4)cc3)n2)cc1 , kinase still bound, per cent of control reported as 47%

Entry CN(C)C/C=C/C(=O)Nc1ccc(C(=O)Nc2cccc(Nc3nccc(-c4cccnc4)n3)c2)cc1 , kinase still bound, per cent of control reported as 97%

Entry COCC(=O)NC/C=C/c1ccc2ncnc(Nc3ccc(Oc4ccc(C)nc4)c(C)c3)c2c1 , kinase still bound, per cent of control reported as 84%

Entry COc1cc2ncn(-c3cc(OCc4ccccc4C(F)(F)F)c(C(N)=O)s3)c2cc1OC , kinase still bound, per cent of control reported as 100%

Entry CCN(CC)CCCCNc1ncc2cc(-c3cc(OC)cc(OC)c3)c(NC(=O)NC(C)(C)C)nc2n1 , kinase still bound, per cent of control reported as 100%

Entry CCN(CC)CCCCNc1ncc2c(n1)N(C)C(=O)N(c1c(Cl)c(OC)cc(OC)c1Cl)C2 , kinase still bound, per cent of control reported as 100%

Entry Cc1n[nH]c2ccc(-c3cncc(OC[C@@H](N)Cc4c[nH]c5ccccc45)c3)cc12 , kinase still bound, per cent of control reported as 100%

###

# system name: MET (human) (UniProt P08581)
# Sequence (P08581 whole entry, looked up): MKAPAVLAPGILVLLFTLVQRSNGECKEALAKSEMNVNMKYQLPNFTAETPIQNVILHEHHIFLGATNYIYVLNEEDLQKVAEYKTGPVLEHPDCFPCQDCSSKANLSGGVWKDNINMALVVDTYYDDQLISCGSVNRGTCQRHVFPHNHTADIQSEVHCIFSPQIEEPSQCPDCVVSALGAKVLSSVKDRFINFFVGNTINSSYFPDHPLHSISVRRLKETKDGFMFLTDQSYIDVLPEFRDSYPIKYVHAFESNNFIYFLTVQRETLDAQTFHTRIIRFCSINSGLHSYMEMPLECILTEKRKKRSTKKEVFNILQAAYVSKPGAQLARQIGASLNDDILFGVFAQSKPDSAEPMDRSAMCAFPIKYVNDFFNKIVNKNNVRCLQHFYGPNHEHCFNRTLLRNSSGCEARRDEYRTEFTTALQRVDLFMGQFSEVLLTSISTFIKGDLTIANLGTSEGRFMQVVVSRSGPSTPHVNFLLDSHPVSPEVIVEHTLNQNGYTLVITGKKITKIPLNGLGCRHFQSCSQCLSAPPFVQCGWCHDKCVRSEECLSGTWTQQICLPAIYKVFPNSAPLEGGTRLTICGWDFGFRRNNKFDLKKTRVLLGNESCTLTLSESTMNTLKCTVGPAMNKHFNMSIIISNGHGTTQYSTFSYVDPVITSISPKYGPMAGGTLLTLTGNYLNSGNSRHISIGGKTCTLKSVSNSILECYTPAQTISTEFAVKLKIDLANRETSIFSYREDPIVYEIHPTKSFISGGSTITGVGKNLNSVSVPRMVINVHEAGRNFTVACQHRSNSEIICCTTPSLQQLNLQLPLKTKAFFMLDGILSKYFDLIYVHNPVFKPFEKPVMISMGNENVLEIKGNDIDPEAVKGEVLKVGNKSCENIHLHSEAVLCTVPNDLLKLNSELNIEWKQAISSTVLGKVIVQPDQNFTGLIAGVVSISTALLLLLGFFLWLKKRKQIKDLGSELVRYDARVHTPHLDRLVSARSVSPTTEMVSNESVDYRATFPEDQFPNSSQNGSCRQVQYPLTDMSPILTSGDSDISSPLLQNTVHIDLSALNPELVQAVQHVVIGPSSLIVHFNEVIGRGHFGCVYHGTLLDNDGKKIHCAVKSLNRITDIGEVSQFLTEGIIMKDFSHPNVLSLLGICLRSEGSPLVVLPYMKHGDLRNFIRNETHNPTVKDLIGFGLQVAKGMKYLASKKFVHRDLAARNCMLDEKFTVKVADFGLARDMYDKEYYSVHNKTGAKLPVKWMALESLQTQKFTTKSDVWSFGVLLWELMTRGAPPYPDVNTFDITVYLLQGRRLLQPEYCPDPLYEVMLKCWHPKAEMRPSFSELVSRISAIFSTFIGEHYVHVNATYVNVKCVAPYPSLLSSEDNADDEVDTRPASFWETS
# test name: KINOMEscan competition binding
# experimental setup: compound 10.0 µM
observed property: kinase still bound, per cent of control
// return the numeric value with its unit appended

Worked examples, 3 compounds total:
COc1cc(C(=O)N2CCC(N3CCN(C)CC3)CC2)ccc1Nc1ncc2c(n1)N(C)c1ccccc1C(=O)N2C 100%
CCN(CC)CCCCNc1ncc2cc(-c3cc(OC)cc(OC)c3)c(NC(=O)NC(C)(C)C)nc2n1 100%
COc1cc(N2CCN(C)CC2)ccc1Nc1ncc2c(n1)N(C)c1ccccc1C(=O)N2C 100%

Entry CNC(=O)c1cc(Oc2ccc(NC(=O)Nc3ccc(Cl)c(C(F)(F)F)c3)cc2)ccn1 , kinase still bound, per cent of control reported as 69%

Entry CCN1CCN(C(=O)Cc2ccc(Nc3ncc(F)c(Nc4ccc(C(=O)Nc5ccccc5Cl)cc4)n3)cc2)CC1 , kinase still bound, per cent of control reported as 8.6%

Entry COc1cc2ncnc(-n3nc(-c4ccccn4)nc3N)c2cc1OC , kinase still bound, per cent of control reported as 55%

Entry NC(=O)Nc1cc(-c2cccc(F)c2)sc1C(=O)N[C@@H]1CCCNC1 , kinase still bound, per cent of control reported as 3.1%

Entry C=CC(=O)Nc1cc(-n2c(=O)ccc3cnc4ccc(-c5cn[nH]c5)cc4c32)ccc1C , kinase still bound, per cent of control reported as 89%

Entry N#CCNC(=O)c1ccc(-c2ccnc(Nc3ccc(N4CCOCC4)cc3)n2)cc1 , kinase still bound, per cent of control reported as 100%
